Measured values drawn from ChEMBL document CHEMBL5058577 for this set.

As shown below, each of these molecules has a reported Population Apoptotic (%) value.
# Tested on: U2OS
# EXPERIMENT: Multiplex assay against U2OS
# Assay type: toxicity, cell-based
# CONDITION NOTES: human, 24 h, 1 µM, compound concentration 1 uM, replicate 2
Numbers only; they are read as %.

Illustrative cases are given below, each with its answer.
Q) For U2OS, provide Population Apoptotic (%) of CCn1c(-c2nc3cc(C(=O)N4CCCC(N)C4)ccc3n2C)cc2ccccc21.Cl (centres undefined) please.
A) 66

Q) For U2OS, provide Population Apoptotic (%) of Cc1cc(=O)n(C)c2cc(N3C(=O)CC[C@H](NS(=O)(=O)CC(C)C)[C@H]3c3ccc(Cl)cc3)ccc12 please.
A) 82

Continuing:
Q) For U2OS, provide Population Apoptotic (%) of Cc1cc(NC(=O)NCCN2CCC(O)(Cc3ccccc3)CC2)c2ccccc2n1 please.
A) 66

Q) For U2OS, provide Population Apoptotic (%) of Nc1nc(-c2ccco2)c2cnn(Cc3ccccc3F)c2n1 please.
A) 84

Q) For U2OS, provide Population Apoptotic (%) of CN1CCC(C(=O)c2cccc(NC(=O)c3c(F)cc(F)cc3F)n2)CC1 please.
A) 72

###

# Test system: Fibroblast
# EXPERIMENT: Multiplex assay against human fibroblast
# Assay type: toxicity, cell-based
# CONDITION NOTES: 12 h, 1 µM, compound concentration 1 uM, replicate 2
OBSERVED PROPERTY: Population Mitochondria Different-Phenotype (%)

Q) For Fibroblast, provide Population Mitochondria Different-Phenotype (%) of S=C(NCCCc1c[nH]cn1)NCCCN(Cc1ccc(Cl)c(Cl)c1)c1ccc(Br)cn1 please.
A) 6%

Q) For Fibroblast, provide Population Mitochondria Different-Phenotype (%) of CN1CCN2c3ccccc3Cc3ccccc3C2C1.Cl (centres undefined) [MIANSERIN HYDROCHLORIDE] please.
A) 5%

Q) For Fibroblast, provide Population Mitochondria Different-Phenotype (%) of O=c1ccc2ccc(OCCCCN3CCN(c4cccc5sccc45)CC3)cc2[nH]1 [BREXPIPRAZOLE] please.
A) 15%

Q) For Fibroblast, provide Population Mitochondria Different-Phenotype (%) of CC(C)(C)c1ccc(CSc2cnn(C(C)(C)C)c(=O)c2Cl)cc1 [PYRIDABEN] please.
A) 7%

Q) For Fibroblast, provide Population Mitochondria Different-Phenotype (%) of O=C(NCCNCC(O)COc1ccc(O)cc1)N1CCOCC1.O=C(NCCNCC(O)COc1ccc(O)cc1)N1CCOCC1.O=C(O)/C=C/C(=O)O (centres undefined) [XAMOTEROL FUMARATE] please.
A) 7%

Continuing:
Q) For Fibroblast, provide Population Mitochondria Different-Phenotype (%) of CCn1c(-c2nc3cc(C(=O)N4CCCC(N)C4)ccc3n2C)cc2ccccc21.Cl (centres undefined) please.
A) 17%

Q) For Fibroblast, provide Population Mitochondria Different-Phenotype (%) of C=CCN1C[C@H](C(=O)N(CCCN(C)C)C(=O)NCC)C[C@@H]2c3cccc4[nH]cc(c34)C[C@H]21 [CABERGOLINE] please.
A) 1%

Q) For Fibroblast, provide Population Mitochondria Different-Phenotype (%) of COCCCN1CCC(NC(=O)c2cc(Cl)c(N)c3c2OCC3)CC1 [PRUCALOPRIDE] please.
A) 8%

Q) For Fibroblast, provide Population Mitochondria Different-Phenotype (%) of Nc1nc(-c2ccco2)c2cnn(Cc3ccccc3F)c2n1 please.
A) 5%

Q) For Fibroblast, provide Population Mitochondria Different-Phenotype (%) of CN1C[C@H](C(=O)N[C@]2(C)O[C@@]3(O)[C@@H]4CCCN4C(=O)[C@H](Cc4ccccc4)N3C2=O)C[C@@H]2c3cccc4[nH]cc(c34)C[C@H]21.CS(=O)(=O)O [DIHYDROERGOTAMINE MESYLATE] please.
A) 5%

Q) For Fibroblast, provide Population Mitochondria Different-Phenotype (%) of C[C@H](NC(=O)CNC(=O)c1cccc(Cl)c1)c1ccccc1 please.
A) 2%

Q) For Fibroblast, provide Population Mitochondria Different-Phenotype (%) of Cl.Cl.OCCOCCN1CCN(C(c2ccccc2)c2ccc(Cl)cc2)CC1 (centres undefined) [HYDROXYZINE HYDROCHLORIDE] please.
A) 6%

Q) For Fibroblast, provide Population Mitochondria Different-Phenotype (%) of COc1cc(C(=O)N2CC[C@@H](O)[C@@H](N)C2)cc2nc(-c3cc4ccccc4n3CC3CC3)n(C)c12.Cl please.
A) 14%

Q) For Fibroblast, provide Population Mitochondria Different-Phenotype (%) of Cc1cc(O)c(-c2ccc([C@@H](C)CN(C)C)cc2)c2c1[nH]c(=O)c1sccc12 please.
A) 12%
